Cited source: ChEMBL document CHEMBL4689842

Test system: U2OS
Assay: Multiplex assay against U2OS
Format: toxicity, cell-based
Conditions: human, 48 h, 1 µM, compound concentration 1 uM, replicate 1
Below, each of the compounds is paired with its reported Population Mitochondria Different-Phenotype (%) value.
Please give a number only; it is taken to be in %.

>>> quantitativeresult("Cl.O=C(O)c1cc(-c2ccc(C3CCNCC3)cc2)c2ccc(-c3ccc(C(F)(F)F)cc3)cc2c1")
17
>>> quantitativeresult("CNC(=O)Nc1ccc(-c2nc(N3CC4CCC(C3)O4)c3cnn(C4CCC5(CC4)OCCO5)c3n2)cc1")
7
>>> quantitativeresult("Cc1cccc(CN2CCN(C(c3ccccc3)c3ccc(Cl)cc3)CC2)c1.Cl.Cl (stereo not drawn)")
11
>>> quantitativeresult("CCc1nn(CCCN2CCN(c3cccc(Cl)c3)CC2)c(=O)n1CCOc1ccccc1.Cl [NEFAZODONE HYDROCHLORIDE]")
15
>>> quantitativeresult("CCCSc1nc(N[C@@H]2C[C@H]2c2ccc(F)c(F)c2)c2nnn([C@@H]3C[C@H](OCCO)[C@@H](O)[C@H]3O)c2n1 [TICAGRELOR]")
7

I have this compound here, CC(C)c1noc(N2CCC(COc3ccc(-c4ccc(S(C)(=O)=O)cc4)nc3)CC2)n1 [GSK-1292263] , and I need its recorded Population Mitochondria Different-Phenotype (%). 12

Same lookup for CC(C)(C)NC[C@H](O)COc1nsnc1N1CCOCC1 [TIMOLOL] , please. 12

Request: COc1cc(Nc2nccc(-c3cnn4nc(OC)ccc34)n2)cc(C(F)(F)F)c1 34

Now try COC(=O)C1=C(C)NC(C)=C(C(=O)OCCCN2CCC(c3ccccc3)(c3ccccc3)CC2)[C@H]1c1cccc([N+](=O)[O-])c1 [NIGULDIPINE] . 97

Now this one: O=C(c1cc2c(cc1F)OC(c1ccc(F)cc1)(c1ccc(Cl)cc1Cl)O2)N1CCOCC1 (stereo not drawn) 11

Next record, please: O=c1cc(N2CCOCC2)oc2c(-c3cccc4c3sc3ccccc34)cccc12 8

Next compound up: CN1CCN(Cc2ccc(Nc3ncc(Cl)c(Nc4ccccc4S(=O)(=O)N(C)C)n3)cc2)CC1 [DUBERMATINIB] 28

Try Cc1ccc2c(c1)c1c(n2CCc2ccc(C)nc2)CCN(C)C1 [LATREPIRDINE] next. 11
